# TGI values compiled below
- Tested on: SW-620 colon
- assay-remarks: NCI tumour cell line growth inhibition, 48 h

CC1=CC(C)C(C)N(CC2=NCCN2)c2ccccc21 (centres undefined) | > 100 µM

Consider the molecule shown here: CC[O-].CC[O-].CN(C)c1ccc([O-])cc1.CN(C)c1ccc([O-])cc1.[Ti+4] What is its recorded TGI?
> 100 µM

Consider the molecule shown here: COc1ccc(C(O)c2cc3c(N)c(C(=O)Nc4ccccc4)sc3nc2C)cc1 (centres undefined) What is its recorded TGI?
> 100 µM

Consider the molecule shown here: N#CC(C(=O)C(N)=O)c1ccccc1Cl (centres undefined) What is its recorded TGI?
> 100 µM

Consider the molecule shown here: CCCCCCC(O)(c1ccc(F)cc1)C(CN1CCOCC1)c1ccccc1 (centres undefined) What is its recorded TGI?
26.3 µM

Consider the molecule shown here: COC(=O)c1ccc(C2SC(C)C(=O)N2NC(=O)C(O)c2ccccc2)cc1 (centres undefined) What is its recorded TGI?
> 100 µM
